I'd appreciate it if you could supply Cmax values for the items below.
# assay method text: Pharmacokinetic profile in mice after oral gavage
# Type: in vivo, mouse
# condition summary: mouse; fasted male Hilltop mice, 10 mg/kg oral gavage, plasma; read-out: Cmax
Express the reported value numerically, then name its unit.

Bench note: what Cmax did N#CCCN1CCN(c2cc(N3CCC[C@H]3C(=O)NCCc3ccc(C#N)cc3)nc(C(F)(F)F)n2)CC1 [Compound 32] show?
1350 ng/mL

Bench note: what Cmax did N#Cc1ccc(CCNC(=O)[C@@H]2CCCN2c2cc(N3CCC(CCCC(=O)NCS(=O)(=O)O)CC3)nc(C(F)(F)F)n2)cc1 [Compound 66] show?
7.3 ng/mL

Bench note: what Cmax did N#Cc1ccc(CCNC(=O)[C@@H]2CCN2c2cc(N3CCC(CCO)CC3)nc(C(F)(F)F)n2)cc1 [Compound 223] show?
44 ng/mL

Bench note: what Cmax did N#Cc1ccc(CCNC(=O)[C@@H]2CCCN2c2cc(N3CCC(CCCNC(=O)NCCS(=O)(=O)O)CC3)nc(C(F)(F)F)n2)cc1 [Compound 119] show?
16 ng/mL

Bench note: what Cmax did N=C(N)N[C@@H](CCC(=O)NCCCC1CCN(c2cc(N3CCC[C@H]3C(=O)NCCc3ccc(C(F)(F)F)cc3)nc(C(F)(F)F)n2)CC1)C(=O)O [Compound 133] show?
4.1 ng/mL

Bench note: what Cmax did N#Cc1ccc(CCNC(=O)[C@@H]2CCCN2c2cc(N3CCC(CCCC(=O)NCCNc4cc(C(=O)O)ncn4)CC3)nc(C(F)(F)F)n2)cc1 [Compound 101] show?
0.7 ng/mL

Bench note: what Cmax did C[N+](C)(C)CCC[C@H](NC(=O)CCCC1CCN(c2cc(N3CCC[C@H]3C(=O)NCCc3ccc(C#N)cc3)nc(C(F)(F)F)n2)CC1)C(=O)O [Compound 105] show?
51 ng/mL

Bench note: what Cmax did N#Cc1ccc(CCNC(=O)[C@@H]2CCCN2c2cc(N3CCC(CCCC(=O)NCCCC[C@H](NC(=N)N)C(=O)O)CC3)nc(C(F)(F)F)n2)cc1 [Compound 129] show?
0.6 ng/mL

Bench note: what Cmax did O=C(O)CC[C@@H](NC(=O)CCCC1CCN(c2cc(N3CC[C@H]3C(=O)NCCc3ccc(C(F)(F)F)cc3)nc(C(F)(F)F)n2)CC1)C(=O)O [Compound 294] show?
1.7 ng/mL

Bench note: what Cmax did N#Cc1ccc(CCNC(=O)[C@@H]2CCCN2c2cc(N3CCC(CCO)CC3)nc(C(F)(F)F)n2)cc1 [Compound 22] show?
171 ng/mL

Bench note: what Cmax did N#Cc1ccc(CCNC(=O)[C@@H]2CCCN2c2cc(N3CCC(CCNc4c(NCCC(=O)O)c(=O)c4=O)CC3)nc(C(F)(F)F)n2)cc1 [Compound 368] show?
2.5 ng/mL

Bench note: what Cmax did N#Cc1ccc(CCNC(=O)[C@@H]2CCCN2c2cc(N3CCC(COCC(=O)NCCS(=O)(=O)O)CC3)nc(C(F)(F)F)n2)cc1 [Compound 89] show?
2.1 ng/mL

Bench note: what Cmax did CS(=O)(=O)NCCOCCNC(=O)NCCC1CCN(c2cc(N3CC[C@H]3C(=O)NCCc3ccc(C#N)cc3)nc(C(F)(F)F)n2)CC1 [Compound 292] show?
1.3 ng/mL

Value source: patent US10654834B2
